Recorded values, source patent US20250250357A1.

biological target: T1, human MSLN on OVCAR3 tumor cells (human, UniProt Q13421 296-598); experiment: FACS, OVCAR3 cells
T1 construct: whole, on cells; also called human MSLN protein
T1 sequence (Q13421 other isoform, or with tags, fused parts or gaps): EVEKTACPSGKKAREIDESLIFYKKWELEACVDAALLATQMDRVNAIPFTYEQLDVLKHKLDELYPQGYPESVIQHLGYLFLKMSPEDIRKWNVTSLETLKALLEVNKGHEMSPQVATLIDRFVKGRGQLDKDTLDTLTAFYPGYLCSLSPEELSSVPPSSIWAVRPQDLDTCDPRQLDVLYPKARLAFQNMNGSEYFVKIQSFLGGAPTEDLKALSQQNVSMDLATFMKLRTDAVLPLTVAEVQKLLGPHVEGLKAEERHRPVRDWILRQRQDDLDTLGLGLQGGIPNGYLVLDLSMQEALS
test-readout: Maximum_MFI (MFI)
Dear colleague, please return just the value in MFI, with no unit written.

Dear colleague, I am looking for the recorded Maximum_MFI of the following binder: F7.33.24-H7 (scFv, not shown: small tags and cut ends, also called S009-F7.33.24 humanized antibody VH2 + VL1) scFv: EVQLVQSGAEVKKPGASVKVSCKASGYTFTSYWMHWVRQAPGQGLEWMGNVNPSNGGSNYNEKFKNRVTITVDKSASTAYMELSSLRSEDTAVYYCAPHYIGSRPGFAYWGQGTLVTVSSGGGGSGGGGSGGGGSDIVMTQSPDSLAVSLGERATINCKASQNVGTNIAWYQQKPGQSPKALIYSASYRYSGVPDRFSGSGSGTDFTLTISSLQAEDVAVYYCQQYNSYPLTFGGGTKVEIK 2190

Recorded Maximum_MFI for F7.33.24-H1 (scFv, not shown: small tags and cut ends, also called S009-F7.33.24 humanized antibody VH1 + VL1) scFv: EVQLVQSGAEVKKPGASVKVSCKASGYTFTSYWMHWVRQAPGQRLEWMGNVNPSNGGSNYNEKFKNRVTITVDKSASTAYMELSSLRSEDTAVYYCAPHYIGSRPGFAYWGQGTLVTVSSGGGGSGGGGSGGGGSDIVMTQSPDSLAVSLGERATINCKASQNVGTNIAWYQQKPGQSPKALIYSASYRYSGVPDRFSGSGSGTDFTLTISSLQAEDVAVYYCQQYNSYPLTFGGGTKVEIK , please? 2180

Fill in: Maximum_MFI of F7.33.24-H4 (scFv, not shown: small tags and cut ends, also called S009-F7.33.24 humanized antibody VH1a + VL1) scFv: EVQLVQSGAEVKKPGASVKVSCKASGYTFTSYWMHWVRQAPGQRLEWMGNVNPSSGGSNYNEKFKNRVTITVDKSASTAYMELSSLRSEDTAVYYCAPHYIGSRPGFAYWGQGTLVTVSSGGGGSGGGGSGGGGSDIVMTQSPDSLAVSLGERATINCKASQNVGTNIAWYQQKPGQSPKALIYSASYRYSGVPDRFSGSGSGTDFTLTISSLQAEDVAVYYCQQYNSYPLTFGGGTKVEIK is ___ 2230

Record request: Maximum_MFI value, item F7.33.24-H11 (scFv, not shown: small tags and cut ends, also called S009-F7.33.24 humanized antibody VH2a + VL2) scFv: EVQLVQSGAEVKKPGASVKVSCKASGYTFTSYWMHWVRQAPGQGLEWMGNVNPSNAGSNYNEKFKNRVTITVDKSASTAYMELSSLRSEDTAVYYCAPHYIGSRPGFAYWGQGTLVTVSSGGGGSGGGGSGGGGSDIVMTQTPLSLSVTPGQPASISCKASQNVGTNIAWYLQKPGQSPQALIYSASYRYSGVPDRFSGSGSGTDFTLKISRVEAEDVGVYYCQQYNSYPLTFGGGTKVEIK 2130
